All figures here come from ChEMBL document CHEMBL3352336.

What Retention_time was measured for each of the following?
PROTOCOL DETAILS: Retention time of the compound
Assay type: physicochemical
One number for each entry, in min.

{"columns": ["MOLECULE SMILES", "Retention_time [min]"],
 "data": [
  ["Cc1cnn(C(=O)N2CCN(Cc3ccc(Oc4ccccc4)cc3)CC2)c1", 3.987]
]}

Would you mind giving Retention_time for every compound in the list below?
1. N#Cc1cnn(C(=O)OCCCCc2ccccc2)c1
2. N#Cc1cnn(C(=O)Nc2ccc3ccccc3c2)c1
3. Cc1cnn(C(=O)CCCCCc2ccccc2)c1
4. O=C(NCc1ccc(OCc2ccccc2)cc1)n1cccn1
5. Cc1ccc(COC(=O)n2cc(C#N)cn2)cc1
6. Cc1cnn(C(=O)NCc2ccc(OCc3ccccc3)cc2)c1
7. CC(C)(C)OC(=O)N1CCCN(C(=O)n2cc(C#N)cn2)CC1

Out:
[3.762, 3.965, 4.2, 3.896, 3.988, 3.876, 3.792]

Would you mind giving Retention_time for every compound in the list below?
1. N#Cc1cnn(C(=O)N2CCCCC2)c1
2. N#Cc1cnn(C(=O)Oc2ccc3ccccc3c2)c1
3. N#Cc1cnn(C(=O)OCc2ccc3ccccc3c2)c1
4. Cc1cnn(C(=O)N2CCN(Cc3ccccc3)CC2)c1

Out:
1: 3.824; 2: 3.9; 3: 3.689; 4: 4.201
